Provenance of the data: patent US6207399A

Target: factor Xa (Homo sapiens)
Construct: human factor Xa samples; gift of Dr. T. Lindhout (University of Limburg, Maastricht)
Assay: Kinetic parameters of hydrolysis of the substrates by factor Xa in buffer A at 37° C. (Example 4, Table 3)
Format: biochemical
Conditions: buffer A, 37° C., 50 nM factor Xa
Peptide text beside a SMILES is read from it. * marks the point of attachment. pNA = O=[N+]([O-])c1ccc(N*)cc1; Boc = CC(C)(C)OC(=O)*
So basically: is Km under 2000 µM? Then criterion met. Not under? Then criterion not met.

Compound: CC(C)[C@H](NC(=O)CNC(=O)CNC(=O)CNC(=O)[C@@H](N)CCC(=O)O)C(=O)N[C@@H](CCCNC(=N)N)C(=O)Nc1ccc([N+](=O)[O-])cc1 [2HCl.H-EGGGVR-pNA, 2HCl.H-Glu-Gly-Gly-Gly-Val-Arg-pNA] (H-EGGGVR-pNA)
Class: criterion met
//
Compound: COC(=O)CC(=O)N[C@H](C(=O)N[C@@H](CCCNC(=N)N)C(=O)Nc1ccc([N+](=O)[O-])cc1)C(C)C.Cl [MZ-Val-Arg-pNA.HCl]
Class: criterion not met
//
Compound: CC(C)[C@H](NC(=O)CNC(=O)OC(C)(C)C)C(=O)N[C@@H](CCCNC(=N)N)C(=O)Nc1ccc([N+](=O)[O-])cc1.Cl [Boc-Gly-Val-Arg-pNA.HCl] (Boc-Gly-Val-Arg-pNA)
Class: criterion not met
//
Compound: CC(C)[C@H](NC(=O)CNC(=O)[C@@H](N)CCC(=O)O)C(=O)N[C@@H](CCCNC(=N)N)C(=O)Nc1ccc([N+](=O)[O-])cc1 [2HCl.H-Glu-Gly-Val-Arg-pNA] (H-EGVR-pNA)
Class: criterion met
//
Compound: CC(C)[C@H](NC(=O)[C@@H](N)CCC(=O)O)C(=O)N[C@@H](CCCNC(=N)N)C(=O)Nc1ccc([N+](=O)[O-])cc1.Cl.Cl [2HCl.H-Glu-Val-Arg-pNA] (H-Glu-Val-Arg-pNA)
Class: criterion met
//
Compound: CC(C)[C@H](NC(=O)CNC(=O)CNC(=O)[C@@H](N)CCC(=O)O)C(=O)N[C@@H](CCCNC(=N)N)C(=O)Nc1ccc([N+](=O)[O-])cc1 [2HCl.H-Glu-Gly-Gly-Val-Arg-pNA] (H-EGGVR-pNA)
Class: criterion not met
//
Compound: CC(C)[C@H](NC(=O)CN)C(=O)N[C@@H](CCCNC(=N)N)C(=O)Nc1ccc([N+](=O)[O-])cc1.Cl.Cl [2HCl.H-Gly-Val-Arg-pNA] (H-Gly-Val-Arg-pNA)
Class: criterion not met

----------
Target: factor Xa (Homo sapiens, UniProt P00742)
Construct: human factor Xa samples; gift of Dr. T. Lindhout (University of Limburg, Maastricht)
Sequence (P00742 41-179 limits assumed): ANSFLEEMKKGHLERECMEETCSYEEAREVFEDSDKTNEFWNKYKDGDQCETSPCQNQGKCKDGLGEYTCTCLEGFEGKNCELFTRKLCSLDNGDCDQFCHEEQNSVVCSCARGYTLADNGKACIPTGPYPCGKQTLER
Sequence (P00742 235-488 limits assumed): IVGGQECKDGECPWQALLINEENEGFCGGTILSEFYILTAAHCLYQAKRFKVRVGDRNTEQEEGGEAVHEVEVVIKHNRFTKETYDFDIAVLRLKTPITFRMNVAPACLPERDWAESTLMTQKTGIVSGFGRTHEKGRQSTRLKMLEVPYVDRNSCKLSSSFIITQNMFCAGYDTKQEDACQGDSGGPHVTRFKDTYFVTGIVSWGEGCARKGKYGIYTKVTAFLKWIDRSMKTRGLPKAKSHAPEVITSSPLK
Assay: Kinetics of hydrolysis of substrates by human factor Xa in buffer A at 37° C. (Example 2, Table 2)
Type: biochemical
Square brackets hold non-standard residues; d marks the D form. Peptide text beside a SMILES is read from it. * marks the point of attachment. pNA = O=[N+]([O-])c1ccc(N*)cc1; Pip = O=C(O)[C@@H]1CCCCN1

Compound: COC(=O)C(C)(C)C(=O)N[C@@H](C)C(=O)N[C@@H](CCCNC(=N)N)C(=O)Nc1ccc([N+](=O)[O-])cc1.Cl [DMMZ-Ala-Arg-pNA.HCl]
kcat: 11.04 s⁻¹

Compound: Cl.N=C(N)NCCC[C@H](NC(=O)CNS(=O)(=O)c1ccc2ccccc2c1)C(=O)Nc1ccc([N+](=O)[O-])cc1 [βNS-Gly-Arg-pNA.HCl]
kcat: 2.00 s⁻¹

Compound: Cl.N[C@H](Cc1ccccc1)C(=O)N1CCCC[C@H]1C(=O)N[C@@H](CCC(=O)O)C(=O)Nc1ccc([N+](=O)[O-])cc1 [HCl.H-D-Phe-Pip-Glu-pNA] (H-[dF]-[Pip]-Glu-pNA)
kcat: NH
